Recorded IC50 by entry
SYSTEM_TESTED: His tagged PTPN2 (TC45) protein (Homo sapiens)
Construct: made in house
Sequence (P17706 with tags, fused parts or gaps isoform P17706-2): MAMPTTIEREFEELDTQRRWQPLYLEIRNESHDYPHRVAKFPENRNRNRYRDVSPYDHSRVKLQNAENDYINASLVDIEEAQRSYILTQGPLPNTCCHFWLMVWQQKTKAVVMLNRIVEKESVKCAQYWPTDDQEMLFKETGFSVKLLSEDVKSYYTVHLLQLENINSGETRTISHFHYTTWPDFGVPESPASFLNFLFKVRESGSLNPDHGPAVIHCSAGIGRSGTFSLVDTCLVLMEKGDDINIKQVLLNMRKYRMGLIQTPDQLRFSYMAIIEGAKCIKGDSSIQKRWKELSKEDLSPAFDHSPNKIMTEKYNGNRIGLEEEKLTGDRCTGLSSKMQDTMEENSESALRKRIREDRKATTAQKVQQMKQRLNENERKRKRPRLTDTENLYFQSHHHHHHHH
PROCEDURE_DETAILS: Mobility shift assay (MSA) for potency of PTPN2 inhibitors
Type: biochemical
CONDITION_LABEL: read-out: PTPN2 IC50
READOUT_TYPE: IC50 (nM)

- COMPOUND: "COc1ccc2cc(O)c(N3CC(=O)NS3(=O)=O)c(F)c2c1 [Compound 124]"
  READOUT_TYPE: "IC50"
  DISPLAY_UNIT: "nM"
  OBSERVED: 4.4
- COMPOUND: "COc1ccc2cc(O)c(N3CC(=O)NS3(=O)=O)cc2c1 [Compound X, reference compound]"
  READOUT_TYPE: "IC50"
  DISPLAY_UNIT: "nM"
  OBSERVED: 69

----------
Test system: B16F10 mouse melanoma cells
PROCEDURE_DETAILS: B16F10 IFNγ-induced cellular growth inhibition assay
Type: cell-based
CONDITION_LABEL: Mus musculus, B16-F10; +0.5 ng/mL IFNγ; 33 μM compound; relative to DMSO control; read-out: % B16F10 growth inhibition (+0.5 ng/mL IFNγ) @ 33 μM

- MOLECULE: "CCS(=O)(=O)NCCOc1ccc2cc(O)c(N3CC(=O)NS3(=O)=O)c(F)c2c1"
  inhibition at 33 µM: "60 to 90%"
- MOLECULE: "COc1ccc(-c2ccc3cc(O)c(N4CC(=O)NS4(=O)=O)c(F)c3c2)s1"
  inhibition at 33 µM: "60 to 90%"
- MOLECULE: "CN(C)CCNc1ccc2cc(O)c(N3CC(=O)NS3(=O)=O)c(F)c2c1"
  inhibition at 33 µM: "60 to 90%"
- MOLECULE: "O=C1CN(c2c(O)cc3ccc(C4CCOC4)cc3c2F)S(=O)(=O)N1 (centres unmarked)"
  inhibition at 33 µM: "60 to 90%"
- MOLECULE: "Nc1ccccc1CS(=O)(=O)N1CC=C(c2ccc3cc(O)c(N4CC(=O)NS4(=O)=O)c(F)c3c2)C1"
  inhibition at 33 µM: "60 to 90%"
- MOLECULE: "O=C1CN(c2c(O)cc3ccc(NCCN4CCC4)cc3c2F)S(=O)(=O)N1"
  inhibition at 33 µM: "> 90%"
- MOLECULE: "CC(C)(CN)CCOc1ccc2cc(O)c(N3CC(=O)NS3(=O)=O)c(F)c2c1"
  inhibition at 33 µM: "> 90%"
- MOLECULE: "O=C1CN(c2c(O)cc3ccc(-c4cnn(CC5CC5)c4)cc3c2F)S(=O)(=O)N1"
  inhibition at 33 µM: "60 to 90%"
- MOLECULE: "O=C1CN(c2c(O)cc3ccc(OCC4CCCO4)cc3c2F)S(=O)(=O)N1 (centres unmarked)"
  inhibition at 33 µM: "60 to 90%"
- MOLECULE: "O=C1CN(c2c(O)cc3ccc(CC4CCN(CC(F)(F)F)CC4)cc3c2F)S(=O)(=O)N1"
  inhibition at 33 µM: "25 to 59%"
- MOLECULE: "N#CCOc1ccc2cc(O)c(N3CC(=O)NS3(=O)=O)c(F)c2c1"
  inhibition at 33 µM: "60 to 90%"

----------
Tested on: B16F10 mouse melanoma cells
PROCEDURE_DETAILS: B16F10 IFNγ-induced cellular growth inhibition assay
Assay type: cell-based
CONDITION_LABEL: Mus musculus, B16-F10; +0.5 ng/mL IFNγ; 33 μM compound; relative to DMSO control; read-out: % B16F10 growth inhibition (+0.5 ng/mL IFNγ) @ 33 μM
READOUT_TYPE: inhibition at 33 µM

- MOLECULE: "Cc1nn(C)cc1S(=O)(=O)N1CC=C(c2ccc3cc(O)c(N4CC(=O)NS4(=O)=O)c(F)c3c2)C1 [Compound 310]"
  OBSERVED: "> 90%"
- MOLECULE: "O=C1CN(c2c(O)cc3ccc(OCCCC(F)(F)F)cc3c2F)S(=O)(=O)N1 [Compound 158]"
  OBSERVED: "60 to 90%"
- MOLECULE: "O=C1CN(c2c(O)cc3ccc(OCCF)cc3c2F)S(=O)(=O)N1 [Compound 198]"
  OBSERVED: "60 to 90%"
- MOLECULE: "CCOCCCOc1ccc2cc(O)c(N3CC(=O)NS3(=O)=O)c(F)c2c1 [Compound 216]"
  OBSERVED: "25 to 59%"
- MOLECULE: "COCCOc1ccc2cc(O)c(N3CC(=O)NS3(=O)=O)c(F)c2c1 [Compound 119]"
  OBSERVED: "60 to 90%"
- MOLECULE: "O=C1CN(c2c(O)cc3ccc(C4CN(C(=O)C5CC5)C4)cc3c2F)S(=O)(=O)N1 [Compound 207]"
  OBSERVED: "25 to 59%"
- MOLECULE: "O=C1CN(c2c(O)cc3ccc(-c4cnn(S(=O)(=O)C5CC5)c4)cc3c2F)S(=O)(=O)N1 [Compound 303]"
  OBSERVED: "60 to 90%"
- MOLECULE: "CCOCCOc1ccc2cc(O)c(N3CC(=O)NS3(=O)=O)c(F)c2c1 [Compound 246]"
  OBSERVED: "60 to 90%"
- MOLECULE: "O=C1CN(c2c(O)cc3ccc(C4CCNCC4)cc3c2F)S(=O)(=O)N1 [Compound 299]"
  OBSERVED: "> 90%"
- MOLECULE: "O=C1CN(c2c(O)cc3ccc(OCC4CC4(F)F)cc3c2F)S(=O)(=O)N1 (centres unmarked) [Compound 210]"
  OBSERVED: "> 90%"
- MOLECULE: "CC(O)CCOc1ccc2cc(O)c(N3CC(=O)NS3(=O)=O)c(F)c2c1 (centres unmarked) [Compound 156]"
  OBSERVED: "60 to 90%"
- MOLECULE: "O=C1CN(c2c(O)cc3ccc(NCCNS(=O)(=O)C4CC4)cc3c2F)S(=O)(=O)N1 [Compound 125]"
  OBSERVED: "60 to 90%"
- MOLECULE: "O=C1CN(c2c(O)cc3ccc(C4=CCOC4)cc3c2F)S(=O)(=O)N1 [Compound 263]"
  OBSERVED: "60 to 90%"
- MOLECULE: "CCN(CC)C(=O)COc1ccc2cc(O)c(N3CC(=O)NS3(=O)=O)c(F)c2c1 [Compound 282]"
  OBSERVED: "25 to 59%"
- MOLECULE: "O=C1CN(c2c(O)cc3ccc(OC4CN(S(=O)(=O)C5CC5)C4)cc3c2F)S(=O)(=O)N1 [Compound 178]"
  OBSERVED: "60 to 90%"
- MOLECULE: "O=C1CN(c2c(O)cc3ccc(C4CNC4)cc3c2F)S(=O)(=O)N1 [Compound 226]"
  OBSERVED: "60 to 90%"
- MOLECULE: "O=C1CN(c2c(O)cc3ccc(OCC4CC(F)(F)C4)cc3c2F)S(=O)(=O)N1 [Compound 235]"
  OBSERVED: "60 to 90%"

----------
Entries with reported IC50 on UniProt P18031
Sequence (P18031 with tags, fused parts or gaps): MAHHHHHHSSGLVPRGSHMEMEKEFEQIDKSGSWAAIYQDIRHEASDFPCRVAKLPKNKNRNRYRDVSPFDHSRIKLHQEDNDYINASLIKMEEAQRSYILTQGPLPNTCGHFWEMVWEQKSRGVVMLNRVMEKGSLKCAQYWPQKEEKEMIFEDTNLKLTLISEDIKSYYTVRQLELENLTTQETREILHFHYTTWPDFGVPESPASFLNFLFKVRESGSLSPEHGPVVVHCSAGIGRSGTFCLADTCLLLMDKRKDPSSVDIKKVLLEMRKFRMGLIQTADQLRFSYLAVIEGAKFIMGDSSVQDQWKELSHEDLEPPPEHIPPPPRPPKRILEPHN

- COMPOUND: "O=C1CN(c2c(O)cc3ccc(OCCC4CCNCC4)cc3c2F)S(=O)(=O)N1"
  SYSTEM_TESTED: "UniProt P18031"
  IC50: "1 to 10 nM"
- COMPOUND: "CC(O)CCOc1ccc2cc(O)c(N3CC(=O)NS3(=O)=O)c(F)c2c1 (stereo not shown)"
  SYSTEM_TESTED: "UniProt P18031"
  IC50: "1 to 10 nM"
- COMPOUND: "O=C1CN(c2c(O)cc3ccc(C4=CCN(S(=O)(=O)CC5CCCCO5)C4)cc3c2F)S(=O)(=O)N1 (stereo not shown)"
  SYSTEM_TESTED: "UniProt P18031"
  IC50: "< 1 nM"
- COMPOUND: "CCCS(=O)(=O)N1CC=C(c2ccc3cc(O)c(N4CC(=O)NS4(=O)=O)c(F)c3c2)C1"
  SYSTEM_TESTED: "UniProt P18031"
  IC50: "< 1 nM"
- COMPOUND: "O=C1CN(c2c(O)cc3ccc(C4=CCN(S(=O)(=O)C5CCOC5)C4)cc3c2F)S(=O)(=O)N1 (stereo not shown)"
  SYSTEM_TESTED: "UniProt P18031"
  IC50: "1 to 10 nM"
- COMPOUND: "NC12CC(CCOc3ccc4cc(O)c(N5CC(=O)NS5(=O)=O)c(F)c4c3)(C1)C2"
  SYSTEM_TESTED: "UniProt P18031"
  IC50: "1 to 10 nM"
- COMPOUND: "O=C1CN(c2c(O)cc3ccc(OCCC4CC4(F)F)cc3c2F)S(=O)(=O)N1 (stereo not shown)"
  SYSTEM_TESTED: "UniProt P18031"
  IC50: "< 1 nM"
- COMPOUND: "CC(C)S(=O)(=O)N1CCC(c2ccc3cc(O)c(N4CC(=O)NS4(=O)=O)c(F)c3c2)C1 (stereo not shown)"
  SYSTEM_TESTED: "UniProt P18031"
  IC50: "1 to 10 nM"
- COMPOUND: "CC(O)COc1ccc2cc(O)c(N3CC(=O)NS3(=O)=O)c(F)c2c1 (stereo not shown)"
  SYSTEM_TESTED: "UniProt P18031"
  IC50: "10 to 100 nM"
- COMPOUND: "O=C1CN(c2c(O)cc3ccc(OCC4CCCOC4)cc3c2F)S(=O)(=O)N1 (stereo not shown)"
  SYSTEM_TESTED: "UniProt P18031"
  IC50: "> 100 nM"
- COMPOUND: "O=C1CN(c2c(O)cc3ccc([C@H]4CCNC4)cc3c2F)S(=O)(=O)N1 (single isomer, unassigned)"
  SYSTEM_TESTED: "UniProt P18031"
  IC50: "10 to 100 nM"
- COMPOUND: "O=C1CN(c2c(O)cc3ccc(CC4CCNC4)cc3c2F)S(=O)(=O)N1 (stereo not shown)"
  SYSTEM_TESTED: "UniProt P18031"
  IC50: "10 to 100 nM"
- COMPOUND: "CCCC(C)S(=O)(=O)N1CC=C(c2ccc3cc(O)c(N4CC(=O)NS4(=O)=O)c(F)c3c2)C1 (stereo not shown)"
  SYSTEM_TESTED: "UniProt P18031"
  IC50: "< 1 nM"
- COMPOUND: "O=C1CN(c2c(O)cc3ccc(OC(CO)CCl)cc3c2F)S(=O)(=O)N1 (stereo not shown)"
  SYSTEM_TESTED: "UniProt P18031"
  IC50: "10 to 100 nM"
- COMPOUND: "CC(C)(C)CC1CCN(c2ccc3cc(O)c(N4CC(=O)NS4(=O)=O)c(F)c3c2)C1 (stereo not shown)"
  SYSTEM_TESTED: "UniProt P18031"
  IC50: "> 100 nM"
- COMPOUND: "O=C1CN(c2c(O)cc3ccc(OCC4CCCO4)cc3c2F)S(=O)(=O)N1 (stereo not shown)"
  SYSTEM_TESTED: "UniProt P18031"
  IC50: "> 100 nM"
- COMPOUND: "O=C1CN(c2c(O)cc3ccc(CC4CCN(S(=O)(=O)C5CC5)C4)cc3c2F)S(=O)(=O)N1 (stereo not shown)"
  SYSTEM_TESTED: "UniProt P18031"
  IC50: "1 to 10 nM"
- COMPOUND: "O=C1CN(c2c(O)cc3ccc(C4CCOC4)cc3c2F)S(=O)(=O)N1 (stereo not shown)"
  SYSTEM_TESTED: "UniProt P18031"
  IC50: "> 100 nM"
- COMPOUND: "O=C1CN(c2c(O)cc3ccc(OCC4CC4(F)F)cc3c2F)S(=O)(=O)N1 (stereo not shown)"
  SYSTEM_TESTED: "UniProt P18031"
  IC50: "1 to 10 nM"
- COMPOUND: "CN(C)CCNc1ccc2cc(O)c(N3CC(=O)NS3(=O)=O)c(F)c2c1"
  SYSTEM_TESTED: "UniProt P18031"
  IC50: "10 to 100 nM"
- COMPOUND: "O=C1CN(c2c(O)cc3ccc(NC4CCN(S(=O)(=O)C5CC5)C4)cc3c2F)S(=O)(=O)N1 (stereo not shown)"
  SYSTEM_TESTED: "UniProt P18031"
  IC50: "10 to 100 nM"
- COMPOUND: "CC(C)CC(=O)Nc1ccc2cc(O)c(N3CC(=O)NS3(=O)=O)c(F)c2c1"
  SYSTEM_TESTED: "UniProt P18031"
  IC50: "10 to 100 nM"
